Cited source for all entries: PubChem BioAssay AID1963978

Hi there, I'd appreciate the recorded viability, T/C for every entry that follows.
Tested on: 616215-338-R-J1-PDC spheroids with HUVEC/MSC, viability;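 also: spheroids exposed to agents for seven days before the viability read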
Test: Anticancer human tumor 616215-338-R-J1-PDC patient-derived colon adenocarcinoma cell line growth inhibition [PI3K]
Settings: second compound 0.01 µM; first compound 0.1 µM; active compounds read low
From the text: Combinatorial screen of targeted agents with the PI3K inhibitors inavolisib, alpelisib, duvelisib, and copanlisib in multi-cell type tumor spheroids A high-throughput screen of multi-cell type tumor spheroids was designed to identify active combinations of targeted small molecules and PI3K pathway inhibitors. […] Compounds. […] If the clinical Cmax for an agent had not been determined, the highest concentration tested was 10 microM. […]

Exercise: Entry under review: Cn1ncc(Cl)c1-c1cc(C(=O)NC(CN)Cc2cccc(F)c2)sc1Cl (stereo not given) + COc1c(OCCCN2CCOCC2)ccc2c3n(c(=NC(=O)c4cnc(N)nc4)nc12)CCN3 . Reported viability, T/C?
Solution: 96.3%

Exercise: Entry under review: CC(=O)c1c(C)c2cnc(Nc3ccc(N4CCNCC4)cn3)nc2n(C2CCCC2)c1=O + CC(Nc1ccc2c(c1)OCCn1cc(N3C(=O)OCC3C(F)F)nc1-2)C(N)=O . Reported viability, T/C?
Solution: 96.5%

Exercise: Entry under review: CC(C)n1nc(-c2ccc3oc(N)nc3c2)c2c(N)ncnc21 + CC(Nc1ccc2c(c1)OCCn1cc(N3C(=O)OCC3C(F)F)nc1-2)C(N)=O . Reported viability, T/C?
Solution: 102%

Exercise: Entry under review: C[C@@H](NC(=O)c1ncnc(N)c1Cl)c1ncc(C(=O)Nc2cc(C(F)(F)F)c(Cl)cn2)s1 + COc1c(OCCCN2CCOCC2)ccc2c3n(c(=NC(=O)c4cnc(N)nc4)nc12)CCN3 . Reported viability, T/C?
Solution: 102%

Exercise: Entry under review: CC1(C)CCC(CN2CCN(c3ccc(C(=O)NS(=O)(=O)c4ccc(NCC5CCOCC5)c([N+](=O)[O-])c4)c(Oc4cnc5[nH]ccc5c4)c3)CC2)=C(c2ccc(Cl)cc2)C1 + COc1c(OCCCN2CCOCC2)ccc2c3n(c(=NC(=O)c4cnc(N)nc4)nc12)CCN3 . Reported viability, T/C?
Solution: 95.1%
